- system_under_test: T1, ParB WT (RTAG) (Caulobacter crescentus, UniProt B8GW30 1-304)
- T1 sequence: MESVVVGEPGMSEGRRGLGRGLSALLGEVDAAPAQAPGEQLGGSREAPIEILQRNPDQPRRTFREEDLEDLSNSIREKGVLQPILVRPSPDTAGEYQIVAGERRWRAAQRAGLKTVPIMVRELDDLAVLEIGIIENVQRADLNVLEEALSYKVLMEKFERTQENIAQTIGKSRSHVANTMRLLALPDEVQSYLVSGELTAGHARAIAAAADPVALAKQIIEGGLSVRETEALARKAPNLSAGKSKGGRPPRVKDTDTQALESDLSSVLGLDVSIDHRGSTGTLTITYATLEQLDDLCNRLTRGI
- assay_procedure: BLI; BLI: 100 mM Tris-HCl pH 7.4, 150 mM NaCl, 1 mM EDTA, 0.005% Tween 20; temperature not stated; biotinylated DNA on streptavidin sensor, protein typically 0-1000
- condition_summary: protein: recombinant; tags: C-terminal His6; chain copies: 2; label: 5' biotin on strand 1; blunt
readout_name: pKd
Keep in mind that pKd stands for -log10 of concentration in molar terms.

Look up pKd for this binder: parS BLI duplex (dsDNA) DNA 1: GGGATGTTTCACGTGAAACA DNA 2: TGTTTCACGTGAAACATCCC
7.96

Each recorded value in this set is attributed to paper PMC7383237.
